System name: furin, P09958;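 note: purified furin at 1:10 enzyme:substrate in 50 mM HEPES pH 7.5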
Sequence (P09958 whole entry): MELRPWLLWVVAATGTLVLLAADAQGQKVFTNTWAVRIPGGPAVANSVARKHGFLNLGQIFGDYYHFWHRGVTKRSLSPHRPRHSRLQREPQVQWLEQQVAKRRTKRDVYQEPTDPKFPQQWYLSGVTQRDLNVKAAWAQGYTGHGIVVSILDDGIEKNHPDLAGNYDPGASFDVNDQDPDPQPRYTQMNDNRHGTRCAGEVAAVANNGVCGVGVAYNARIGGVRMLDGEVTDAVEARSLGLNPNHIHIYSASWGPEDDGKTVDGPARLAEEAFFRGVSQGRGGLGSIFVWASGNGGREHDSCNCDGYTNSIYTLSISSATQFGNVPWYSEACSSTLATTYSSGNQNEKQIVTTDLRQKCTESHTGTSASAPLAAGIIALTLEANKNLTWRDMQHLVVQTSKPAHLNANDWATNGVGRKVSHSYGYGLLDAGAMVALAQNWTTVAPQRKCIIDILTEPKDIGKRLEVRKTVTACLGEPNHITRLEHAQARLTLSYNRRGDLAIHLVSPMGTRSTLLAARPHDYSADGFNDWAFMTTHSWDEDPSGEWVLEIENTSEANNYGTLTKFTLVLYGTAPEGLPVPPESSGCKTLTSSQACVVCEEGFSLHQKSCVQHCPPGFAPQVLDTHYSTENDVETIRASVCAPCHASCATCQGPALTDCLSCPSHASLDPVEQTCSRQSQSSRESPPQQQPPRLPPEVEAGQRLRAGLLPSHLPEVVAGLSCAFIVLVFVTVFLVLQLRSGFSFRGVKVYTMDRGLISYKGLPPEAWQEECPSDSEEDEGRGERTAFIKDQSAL
Test protocol: furin cleavage Z-score vs untreated control; higher = more cleavage, active = 3.5 or more, inactive = 1 or less, 8 variable residues between constant flanks
Experimental setup: 30 min
This is one part of the list. How many sequences the whole screen found active is unknown.
Listing: furin cleavage Z-score of selected sequences
Number only, no unit.

Please review the entries below; each comes with its answer.
>>> reading("CAGSWSTVSSAGNASASA [HC1362]")
-0.172
>>> reading("CARPSRSGGRAGNASASA [FS-2287]")
-0.606
>>> reading("CARISRSLHQAGNASASA [FS-3190]")
8.11
>>> reading("CAEVLYREFDAGNASASA [HC1010]")
-0.163
>>> reading("CAGKSLKKRSAGNASASA [FS-1198]")
8.35

Entry CACCSMSYSWAGNASASA [HC1370] ; furin cleavage Z-score = 0.225

Entry CARCRRTVSMAGNASASA [FS-1998] ; furin cleavage Z-score = 4.65

Entry CARSARDVSSAGNASASA [FS-2302] ; furin cleavage Z-score = 6.82

Entry CARSARPLVQAGNASASA [FS-2085] ; furin cleavage Z-score = -1.67

Entry CATTPCSKSWAGNASASA [HC1894] ; furin cleavage Z-score = 1.43

Entry CASKAHGIDPAGNASASA [HC795] ; furin cleavage Z-score = 1.13

Entry CARLGRIVDRAGNASASA [FS-1737] ; furin cleavage Z-score = 0.14

Entry CAQGSRSLTPAGNASASA [HC718] ; furin cleavage Z-score = 0.396
